// data source = patent US20220041744A1

# maps each entry to its pKd
- assayed.target: T1, human recombinant soluble CD73 protein (human, UniProt P21589 27-547)
- T1 construct: also called huCD73; rhCD73
- T1 sequence: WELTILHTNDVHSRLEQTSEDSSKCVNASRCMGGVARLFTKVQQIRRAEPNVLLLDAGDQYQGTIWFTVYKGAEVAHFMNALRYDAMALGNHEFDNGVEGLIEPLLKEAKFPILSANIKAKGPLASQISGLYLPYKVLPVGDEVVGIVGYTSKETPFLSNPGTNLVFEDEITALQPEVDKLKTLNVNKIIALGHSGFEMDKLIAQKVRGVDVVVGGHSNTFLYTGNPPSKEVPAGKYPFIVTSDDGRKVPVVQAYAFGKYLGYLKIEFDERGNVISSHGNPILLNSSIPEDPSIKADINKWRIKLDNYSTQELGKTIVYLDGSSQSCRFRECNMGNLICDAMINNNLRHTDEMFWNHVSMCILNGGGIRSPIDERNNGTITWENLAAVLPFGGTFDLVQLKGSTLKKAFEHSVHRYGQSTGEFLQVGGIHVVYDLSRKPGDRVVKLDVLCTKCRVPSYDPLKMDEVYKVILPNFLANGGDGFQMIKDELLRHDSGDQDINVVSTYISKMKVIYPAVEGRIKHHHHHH
- experiment.summary: SPR, Ab captured on Protein A, soluble huCD73 as analyte
Please express pKd as -log10 of the molar concentration.

Request: Need pKd, item H3L3 (antibody, human IgG1, V domains shown) VH: QIQLVQSGAEVKKPGASVKVSCKASGYAFTSYNMYWVRQAPGQSLEWIGYIDPYNGGSSYNLTFKGKATITVDKSASTAYMELSSLRSEDTAVYYCARGYGNYKAWFAYWGQGTLVTVSS VL: DVQMTQSPSSLSASVGDRVTITCKASQSVSNDVAWYQQKPGKAPKLLIYYASTRYTGVPDRFSGSGYGTDFTFTISSLQPEDIATYYCQQDYSSLTFGQGTKLEIK
Result: 8.96

Next:
Request: Need pKd, item H3L1 (antibody, human IgG1, V domains shown) VH: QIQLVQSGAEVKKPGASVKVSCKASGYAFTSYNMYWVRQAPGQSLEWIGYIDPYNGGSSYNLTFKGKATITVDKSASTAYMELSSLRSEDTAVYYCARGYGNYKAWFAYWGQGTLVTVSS VL: DIQMTQSPSSLSASVGDRVTITCKASQSVSNDVAWYQQKPGKAPKLLIYYASTRYTGVPSRFSGSGYGTDFTFTISSLQPEDIATYYCQQDYSSLTFGQGTKLEIK
Result: 8.74

Request: Need pKd, item H2L3 (antibody, human IgG1, V domains shown) VH: QIQLVQSGAEVKKPGASVKVSCKASGYAFTSYNMYWVRQAPGQSLEWMGYIDPYNGGSSYNLTFKGRVTITVDKSASTAYMELSSLRSEDTAVYYCARGYGNYKAWFAYWGQGTLVTVSS VL: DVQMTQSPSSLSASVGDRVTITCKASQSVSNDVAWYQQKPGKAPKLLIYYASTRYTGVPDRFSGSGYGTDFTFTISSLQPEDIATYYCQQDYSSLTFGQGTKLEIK
Result: 9.00
